Hello, the source for this data is ChEMBL document CHEMBL4396972, in case you need it.

- Tested on: Vero C1008
- test.details: Cytotoxicity against African green monkey Vero E6 cells assessed as reduction in survival rate measured after 48 hrs by MTT assay
- Type: cell-based
- condition.description: chlorocebus sabaeus, vero c1008, 48 h
measured.quantity: CC50

For CC1(C)[C@@H](O[C@H]2O[C@H](C(=O)O)[C@@H](O)[C@H](O)[C@H]2O[C@@H]2O[C@H](C(=O)O)[C@@H](O)[C@H](O)[C@H]2O)CC[C@]2(C)[C@H]3C(=O)C=C4[C@@H]5C[C@@](C)(C(=O)O)CC[C@]5(C)CC[C@@]4(C)[C@]3(C)CC[C@@H]12 [GLYCYRRHIZIN] the molecule record lists CC50 as > 100 µM
